- target-system: T1, Human CD137 ECD (human)
- T1 construct: entry includes C-terminal His-tag and biotin acceptor peptide; also called human CD137 extracellular domain; 4-1BB
- T1 sequence (chain, as listed by the source limits assumed): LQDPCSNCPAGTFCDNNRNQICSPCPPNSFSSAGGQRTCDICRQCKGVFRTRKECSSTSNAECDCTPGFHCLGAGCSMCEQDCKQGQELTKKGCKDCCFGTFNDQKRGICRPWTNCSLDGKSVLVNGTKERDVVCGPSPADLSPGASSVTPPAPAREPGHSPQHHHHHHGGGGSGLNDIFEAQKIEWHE
- test-protocol: Biacore SPR, vs parent H183/L072
experimental-endpoint: fold change of affinity (fold)
Reply with just the number (in fold).

H183/L072 VL P95R (antibody, name in Kabat numbering, V domains shown, Dual-Ig) VH: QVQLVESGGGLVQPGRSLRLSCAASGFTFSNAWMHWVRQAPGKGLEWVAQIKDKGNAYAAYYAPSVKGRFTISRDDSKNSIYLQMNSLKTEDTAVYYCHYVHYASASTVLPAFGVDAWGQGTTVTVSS VL: DIVMTQSPLSLPVTPGEPASISCQASQELVHMNRNTYLHWYQQKPGQAPRLLIYKVSNRFPGVPDRFSGSGSGTDFTLKISRVEAEDVGVYYCAQGTSVRFTFGQGTKLEIK	0
H183/L072 VL R29A (antibody, name in Kabat numbering, V domains shown, Dual-Ig) VH: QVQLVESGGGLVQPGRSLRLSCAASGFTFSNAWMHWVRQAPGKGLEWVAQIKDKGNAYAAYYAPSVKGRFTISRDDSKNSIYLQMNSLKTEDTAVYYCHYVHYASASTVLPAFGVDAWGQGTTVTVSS VL: DIVMTQSPLSLPVTPGEPASISCQASQELVHMNANTYLHWYQQKPGQAPRLLIYKVSNRFPGVPDRFSGSGSGTDFTLKISRVEAEDVGVYYCAQGTSVPFTFGQGTKLEIK	0.8

Let us examine a further case.
input: Look up fold change of affinity for this binder: H183/L072 VL V94D (antibody, name in Kabat numbering, V domains shown, Dual-Ig) VH: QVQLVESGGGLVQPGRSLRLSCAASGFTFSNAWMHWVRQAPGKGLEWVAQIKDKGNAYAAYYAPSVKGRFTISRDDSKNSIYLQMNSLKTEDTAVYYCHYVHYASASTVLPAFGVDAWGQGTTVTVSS VL: DIVMTQSPLSLPVTPGEPASISCQASQELVHMNRNTYLHWYQQKPGQAPRLLIYKVSNRFPGVPDRFSGSGSGTDFTLKISRVEAEDVGVYYCAQGTSDPFTFGQGTKLEIK
output: 0
